# Tested on: human primary monocytes
# MEASUREMENT_DESCRIPTION: IFN-α production in human primary monocytes transfected with RNA (ELISA)
# Assay type: cell-based
# TEST_CONTEXT: monocytes from three donors, 36 hours after transfection; normalized to the mean induction level of all oligonucleotides (=100%)
{ppp} = triphosphate group
REPORTED_ENDPOINT: IFN-α induction (*100%) mean

SUBSTANCE	RECORDED_MEASUREMENT
acugggggac acacacacac acacacacac (ACUGGGGGACACACACACACACACACACAC; RNA, 5' {ppp}, backbone not given here) [SEQ ID No. 152]	1.14 *100%
aaacggggac acacacacac acacacacac (AAACGGGGACACACACACACACACACACAC; RNA, 5' {ppp}, backbone not given here) [SEQ ID No. 154]	1.15 *100%
auuaggggac acacacacac acacacacac (AUUAGGGGACACACACACACACACACACAC; RNA, 5' {ppp}, backbone not given here) [SEQ ID No. 171]	1.36 *100%
aacuggggac acacacacac acacacacac (AACUGGGGACACACACACACACACACACAC; RNA, 5' {ppp}, backbone not given here) [SEQ ID No. 163]	1.29 *100%
aacgggggac acacacacac acacacacac (AACGGGGGACACACACACACACACACACAC; RNA, 5' {ppp}, backbone not given here) [SEQ ID No. 170]	1.34 *100%
auagggggac acacacacac acacacacac (AUAGGGGGACACACACACACACACACACAC; RNA, 5' {ppp}, backbone not given here) [SEQ ID No. 123]	0.76 *100%
agggggggac acacacacac acacacacac (AGGGGGGGACACACACACACACACACACAC; RNA, 5' {ppp}, backbone not given here) [SEQ ID No. 111]	0.22 *100%
auccggggac acacacacac acacacacac (AUCCGGGGACACACACACACACACACACAC; RNA, 5' {ppp}, backbone not given here) [SEQ ID No. 141]	1.01 *100%
agucggggac acacacacac acacacacac (AGUCGGGGACACACACACACACACACACAC; RNA, 5' {ppp}, backbone not given here) [SEQ ID No. 140]	1.00 *100%
aaaaggggac acacacacac acacacacac (AAAAGGGGACACACACACACACACACACAC; RNA, 5' {ppp}, backbone not given here) [SEQ ID No. 121]	0.73 *100%
acguggggac acacacacac acacacacac (ACGUGGGGACACACACACACACACACACAC; RNA, 5' {ppp}, backbone not given here) [SEQ ID No. 125]	0.77 *100%
acccggggac acacacacac acacacacac (DNA ACCCGGGGACACACACACACACACACACAC; chemistry not fully specified) [SEQ ID No. 130]	0.89 *100%
acuuggggac acacacacac acacacacac (ACUUGGGGACACACACACACACACACACAC; RNA, 5' {ppp}, backbone not given here) [SEQ ID No. 118]	0.66 *100%
aauaggggac acacacacac acacacacac (AAUAGGGGACACACACACACACACACACAC; RNA, 5' {ppp}, backbone not given here) [SEQ ID No. 112]	0.40 *100%
accaggggac acacacacac acacacacac (ACCAGGGGACACACACACACACACACACAC; RNA, 5' {ppp}, backbone not given here) [SEQ ID No. 126]	0.79 *100%
auacggggac acacacacac acacacacac (AUACGGGGACACACACACACACACACACAC; RNA, 5' {ppp}, backbone not given here) [SEQ ID No. 139]	0.99 *100%
aagaggggac acacacacac acacacacac (AAGAGGGGACACACACACACACACACACAC; RNA, 5' {ppp}, backbone not given here) [SEQ ID No. 134]	0.95 *100%
agcuggggac acacacacac acacacacac (AGCUGGGGACACACACACACACACACACAC; RNA, 5' {ppp}, backbone not given here) [SEQ ID No. 120]	0.69 *100%
acggggggac acacacacac acacacacac (ACGGGGGGACACACACACACACACACACAC; RNA, 5' {ppp}, backbone not given here) [SEQ ID No. 145]	1.03 *100%

###

# Test system: human primary monocytes
# MEASUREMENT_DESCRIPTION: IFN-α production in human primary monocytes transfected with RNA (ELISA)
# Assay type: cell-based
# TEST_CONTEXT: monocytes from three donors, 36 hours after transfection; normalized to the mean induction level of all oligonucleotides (=100%)
{ppp} = triphosphate group
REPORTED_ENDPOINT: IFN-α induction (*100%) mean

SUBSTANCE	TESTED_SYSTEM	RECORDED_MEASUREMENT
auggggggac acacacacac acacacacac (AUGGGGGGACACACACACACACACACACAC; RNA, 5' {ppp}, backbone not given here) [SEQ ID No. 172]	human primary monocytes	1.38 *100%
aucuggggac acacacacac acacacacac (AUCUGGGGACACACACACACACACACACAC; RNA, 5' {ppp}, backbone not given here) [SEQ ID No. 133]	human primary monocytes	0.94 *100%
aggaggggac acacacacac acacacacac (AGGAGGGGACACACACACACACACACACAC; RNA, 5' {ppp}, backbone not given here) [SEQ ID No. 161]	human primary monocytes	1.27 *100%
agacggggac acacacacac acacacacac (AGACGGGGACACACACACACACACACACAC; RNA, 5' {ppp}, backbone not given here) [SEQ ID No. 116]	human primary monocytes	0.62 *100%
aaucggggac acacacacac acacacacac (AAUCGGGGACACACACACACACACACACAC; RNA, 5' {ppp}, backbone not given here) [SEQ ID No. 132]	human primary monocytes	0.94 *100%

###

# System: human primary monocytes
# MEASUREMENT_DESCRIPTION: IFN-α production in human primary monocytes transfected with RNA (ELISA)
# Format: cell-based
# TEST_CONTEXT: monocytes from three donors, 36 hours after transfection; normalized to the mean induction level of all oligonucleotides (=100%)
{ppp} = triphosphate group
REPORTED_ENDPOINT: IFN-α induction (*100%) mean

SUBSTANCE	REPORTED_ENDPOINT	RECORDED_MEASUREMENT
acgcggggac acacacacac acacacacac (ACGCGGGGACACACACACACACACACACAC; RNA, 5' {ppp}, backbone not given here) [SEQ ID No. 147]	IFN-α induction (*100%) mean	1.08 *100%
acucggggac acacacacac acacacacac (ACUCGGGGACACACACACACACACACACAC; RNA, 5' {ppp}, backbone not given here) [SEQ ID No. 137]	IFN-α induction (*100%) mean	0.98 *100%
aguaggggac acacacacac acacacacac (AGUAGGGGACACACACACACACACACACAC; RNA, 5' {ppp}, backbone not given here) [SEQ ID No. 158]	IFN-α induction (*100%) mean	1.22 *100%
agagggggac acacacacac acacacacac (AGAGGGGGACACACACACACACACACACAC; RNA, 5' {ppp}, backbone not given here) [SEQ ID No. 114]	IFN-α induction (*100%) mean	0.50 *100%
accgggggac acacacacac acacacacac (ACCGGGGGACACACACACACACACACACAC; RNA, 5' {ppp}, backbone not given here) [SEQ ID No. 122]	IFN-α induction (*100%) mean	0.73 *100%

###

# System: human primary monocytes
# MEASUREMENT_DESCRIPTION: IFN-α production in human primary monocytes transfected with RNA (ELISA)
# Format: cell-based
# TEST_CONTEXT: monocytes from three donors, 36 hours after transfection; normalized to the mean induction level of all oligonucleotides (=100%)
{ppp} = triphosphate group

SUBSTANCE	TESTED_SYSTEM	IFN-α induction (*100%) mean
auauggggac acacacacac acacacacac (AUAUGGGGACACACACACACACACACACAC; RNA, 5' {ppp}, backbone not given here) [SEQ ID No. 129]	human primary monocytes	0.89 *100%
acuaggggac acacacacac acacacacac (ACUAGGGGACACACACACACACACACACAC; RNA, 5' {ppp}, backbone not given here) [SEQ ID No. 117]	human primary monocytes	0.62 *100%
aagcggggac acacacacac acacacacac (AAGCGGGGACACACACACACACACACACAC; RNA, 5' {ppp}, backbone not given here) [SEQ ID No. 157]	human primary monocytes	1.22 *100%
agccggggac acacacacac acacacacac (AGCCGGGGACACACACACACACACACACAC; RNA, 5' {ppp}, backbone not given here) [SEQ ID No. 128]	human primary monocytes	0.87 *100%
aaugggggac acacacacac acacacacac (AAUGGGGGACACACACACACACACACACAC; RNA, 5' {ppp}, backbone not given here) [SEQ ID No. 136]	human primary monocytes	0.96 *100%
auguggggac acacacacac acacacacac (AUGUGGGGACACACACACACACACACACAC; RNA, 5' {ppp}, backbone not given here) [SEQ ID No. 153]	human primary monocytes	1.15 *100%
acacggggac acacacacac acacacacac (ACACGGGGACACACACACACACACACACAC; RNA, 5' {ppp}, backbone not given here) [SEQ ID No. 135]	human primary monocytes	0.95 *100%
augaggggac acacacacac acacacacac (AUGAGGGGACACACACACACACACACACAC; RNA, 5' {ppp}, backbone not given here) [SEQ ID No. 169]	human primary monocytes	1.32 *100%
aaggggggac acacacacac acacacacac (AAGGGGGGACACACACACACACACACACAC; RNA, 5' {ppp}, backbone not given here) [SEQ ID No. 149]	human primary monocytes	1.11 *100%
augcggggac acacacacac acacacacac (AUGCGGGGACACACACACACACACACACAC; RNA, 5' {ppp}, backbone not given here) [SEQ ID No. 159]	human primary monocytes	1.23 *100%
aaagggggac acacacacac acacacacac (AAAGGGGGACACACACACACACACACACAC; RNA, 5' {ppp}, backbone not given here) [SEQ ID No. 173]	human primary monocytes	1.40 *100%
